- Measurement target: PERK (Homo sapiens, UniProt Q9NZJ5)
- Sequence (Q9NZJ5 30-1116): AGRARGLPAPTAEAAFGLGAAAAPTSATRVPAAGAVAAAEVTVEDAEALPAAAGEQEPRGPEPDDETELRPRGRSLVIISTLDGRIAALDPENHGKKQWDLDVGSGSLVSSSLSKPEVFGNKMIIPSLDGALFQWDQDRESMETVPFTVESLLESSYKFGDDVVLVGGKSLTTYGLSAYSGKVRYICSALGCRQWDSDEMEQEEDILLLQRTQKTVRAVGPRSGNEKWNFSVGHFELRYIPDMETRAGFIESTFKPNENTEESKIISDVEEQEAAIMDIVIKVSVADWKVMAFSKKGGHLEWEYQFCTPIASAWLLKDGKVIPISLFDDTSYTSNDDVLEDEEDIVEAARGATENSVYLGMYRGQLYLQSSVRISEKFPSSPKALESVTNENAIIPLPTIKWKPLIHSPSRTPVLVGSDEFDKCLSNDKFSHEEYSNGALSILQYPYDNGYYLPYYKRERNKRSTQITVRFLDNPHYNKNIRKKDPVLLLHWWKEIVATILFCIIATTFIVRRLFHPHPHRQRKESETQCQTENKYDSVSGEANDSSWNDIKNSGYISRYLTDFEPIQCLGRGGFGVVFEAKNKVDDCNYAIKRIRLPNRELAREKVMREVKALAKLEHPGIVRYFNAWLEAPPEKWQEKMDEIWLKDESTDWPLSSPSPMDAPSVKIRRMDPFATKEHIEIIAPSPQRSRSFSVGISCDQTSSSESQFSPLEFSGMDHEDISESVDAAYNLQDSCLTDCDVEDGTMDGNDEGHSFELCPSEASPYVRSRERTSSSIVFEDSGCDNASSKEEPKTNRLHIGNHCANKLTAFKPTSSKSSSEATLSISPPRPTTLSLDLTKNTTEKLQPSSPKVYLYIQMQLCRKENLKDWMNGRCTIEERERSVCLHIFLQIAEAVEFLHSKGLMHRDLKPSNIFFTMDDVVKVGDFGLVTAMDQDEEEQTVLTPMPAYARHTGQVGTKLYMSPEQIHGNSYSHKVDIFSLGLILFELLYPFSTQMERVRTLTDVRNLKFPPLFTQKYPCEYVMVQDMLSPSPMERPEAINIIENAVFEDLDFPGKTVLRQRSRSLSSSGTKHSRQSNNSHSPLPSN
- Measurement description: PERK enzyme assay (HTRF)
- Type: biochemical
- Run parameters: PERK Enzyme (500 μM ATP) IC50; at least one experimental run; read-out: PERK Activity
Parameter: IC50

CN1C(=O)N(c2ccc(-c3cn(C)c4ncnc(N)c34)c(F)c2)CC1c1cccc(OC(F)F)c1 (stereo not shown) ... 100 to 1000 nM
CC(C)n1cc(-c2ccc(N3CC(c4cc(F)ccc4F)N(C)C3=O)cc2F)c2c(N)ncnc21 (stereo not shown) [Example 43] ... < 100 nM
CN1C(=O)N(c2ccc(-c3cn(C4CC4)c4ncnc(N)c34)c(F)c2)CC1c1ccc(F)c(F)c1 (single isomer, unassigned) [Example 117] ... 100 to 1000 nM
CN1C(=O)N(c2ccc(-c3cn(C)c4ncnc(N)c34)c(Cl)c2)CC1c1cc(F)cc(F)c1 (stereo not shown) [Example 121] ... < 100 nM
CCN1C(=O)N(c2ccc(-c3cn(C)c4ncnc(N)c34)c(F)c2)CC1c1cc(F)cc(F)c1 (single isomer, unassigned) [Example 172] ... < 100 nM

Please give the documented IC50 of Cc1nc(N)c2c(-c3ccc(N4CC(c5ccc(F)cc5F)N(C)C4=O)cc3F)cn(C)c2n1 (stereo not shown) [Example 65]
100 to 1000 nM

Please give the documented IC50 of CCN1C(=O)N(c2ccc(-c3cn(C)c4ncnc(N)c34)c(F)c2)CC1c1cc(F)cc(F)c1 (single isomer, unassigned) [Example 171]
< 100 nM

Please give the documented IC50 of Cn1cc(-c2ccc(N3CC(c4cc(F)cc(F)c4)CC3=O)cc2)c2c(N)ncnc21 (stereo not shown)
100 to 1000 nM

Please give the documented IC50 of CN1C(=O)N(c2ccc(-c3cn(C4CC4)c4ncnc(N)c34)c(F)c2)CC1c1ccc(F)c(F)c1 (single isomer, unassigned) [Example 116]
< 100 nM

Please give the documented IC50 of CCN1C(=O)N(c2ccc(-c3nn(C)c4ncnc(N)c34)c(F)c2)CC1c1ccc(F)cc1F (stereo not shown)
100 to 1000 nM

Please give the documented IC50 of Cc1nc(N)c2c(-c3ccc(N4CC(c5c(F)ccc(F)c5F)N(C)C4=O)cc3F)cn(C)c2n1 (stereo not shown) [Example 72]
100 to 1000 nM

Please give the documented IC50 of Cn1cc(-c2ccc(N3CC(c4cc(F)ccc4F)N(Cc4ccccc4)C3=O)cc2F)c2c(N)ncnc21 (stereo not shown)
> 1000 nM

Please give the documented IC50 of CCN1C(=O)N(c2ccc(-c3cn(C4CC4)c4ncnc(N)c34)c(F)c2)CC1c1cc(F)cc(F)c1 (single isomer, unassigned) [Example 174]
< 100 nM

Please give the documented IC50 of CN1C(=O)N(c2ccc(-c3cn(C)c4ncnc(N)c34)c(F)c2)CC1c1cc(F)cc(F)c1 (stereo not shown) [Example 25]
< 100 nM

Please give the documented IC50 of CCN1C(=O)N(c2ccc(-c3cn(C)c4ncnc(N)c34)c(F)c2)CC1c1cc(F)ccc1F (single isomer, unassigned) [Example 2]
< 100 nM

Please give the documented IC50 of CN1C(=O)N(c2ccc(-c3cn(C4CC4)c4ncnc(N)c34)c(F)c2)CC1c1ccc(F)cc1 (stereo not shown) [Example 162]
< 100 nM

Please give the documented IC50 of Cc1cc(N2CC(c3cc(F)cc(F)c3)N(C)C2=O)ccc1-c1cn(C)c2ncnc(N)c12 (stereo not shown)
< 100 nM

Please give the documented IC50 of Cn1cc(-c2ccc(N3CC(c4ccc(F)cc4F)CC3=O)cc2F)c2c(N)ncnc21 (stereo not shown)
100 to 1000 nM

Please give the documented IC50 of CN1C(=O)N(c2ccc(-c3cn(C)c4ncnc(N)c34)c(F)c2)CC1c1cc(F)ccc1F (stereo not shown) [Example 18]
100 to 1000 nM

Please give the documented IC50 of CN1C(=O)N(c2ccc(-c3cn(C4CC4)c4ncnc(N)c34)c(F)c2)CC1c1ccc(F)cc1 (single isomer, unassigned) [Example 164]
100 to 1000 nM

Please give the documented IC50 of Cc1nc(N)c2c(-c3c(F)cc(N4CC(c5ccc(F)cc5F)N(C)C4=O)cc3F)cn(C)c2n1 (stereo not shown)
100 to 1000 nM

Please give the documented IC50 of Cc1cccc(C2CC(=O)N(c3ccc(-c4cn(C)c5ncnc(N)c45)c(F)c3)C2)n1 (stereo not shown)
100 to 1000 nM

Please give the documented IC50 of CN1C(=O)N(c2ccc(-c3cn(C)c4ncnc(N)c34)c(F)c2)CC1c1ccc(F)cc1F (stereo not shown) [Example 24]
100 to 1000 nM

meta.source: patent US20180237441A1
